Data credit: patent US20110195911A1

- System: MCF-7 breast cancer cells
- experimentSummary: MTT cell toxicity assay in MCF-7 breast cancer cells
- Format: cell-based
- testParameters: MCF-7 cells, MTT, final 0.5% FBS, two days with compound
Where a SMILES comes first, the peptide text is derived from it. The star is where a group is joined. Palmitoyl = CCCCCCCCCCCCCCCC(=O)*
measuredMetric: GI50 (nM)

>>> testvalue("CCCCCCCCCCCCCCCC(=O)N[C@@H](CCCNC(=N)N)C(=O)N[C@@H](CC(N)=O)C(=O)N[C@@H](CC(N)=O)C(=O)N[C@@H](CO)C(=O)N[C@@H](CCCNC(=N)N)C(=O)N[C@@H](CC(C)C)C(=O)NCC(=O)N[C@@H](CC(N)=O)C(=O)NCC(=O)N[C@H](C(=O)N[C@@H](CC(C)C)C(=O)N[C@@H](Cc1ccc(O)cc1)C(=O)N[C@@H](C)C(=O)N[C@@H](CO)C(=O)N[C@H](C(N)=O)C(C)C)C(C)C [Peptide 35, Pal-RNNSRLGNGVLYASV-NH2] (Palmitoyl-RNNSRLGNGVLYASV-NH2)")
50
>>> testvalue("CCCCCCCCCCCCCCCC(=O)N[C@@H](CCCNC(=N)N)C(=O)N[C@@H](CC(N)=O)C(=O)N[C@@H](CC(N)=O)C(=O)N[C@@H](CO)C(=O)N[C@@H](CCCNC(=N)N)C(=O)N[C@@H](CC(C)C)C(=O)NCC(=O)N[C@@H](CC(N)=O)C(=O)NCC(=O)N[C@H](C(=O)N[C@@H](CC(C)C)C(N)=O)C(C)C [Peptide 30, Pal-RNNSRLGNGVL-NH2] (Palmitoyl-RNNSRLGNGVL-NH2)")
1700
>>> testvalue("CCCCCCCCCCCCCCCC(=O)N[C@@H](Cc1c[nH]cn1)C(=O)N[C@@H](CCCNC(=N)N)C(=O)N[C@@H](CCCCN)C(=O)N[C@@H](CCCNC(=N)N)C(=O)N[C@@H](CC(N)=O)C(=O)N[C@@H](CC(N)=O)C(=O)N[C@@H](CO)C(=O)N[C@@H](CCCNC(=N)N)C(=O)N[C@@H](CC(C)C)C(=O)NCC(=O)N[C@@H](CC(N)=O)C(=O)NCC(=O)N[C@H](C(=O)N[C@@H](CC(C)C)C(N)=O)C(C)C [Peptide 10, Pal-HRKRNNSRLGNGVL-NH2] (Palmitoyl-HRKRNNSRLGNGVL-NH2)")
1800
>>> testvalue("CCCCCCCCCCCCCCCC(=O)N[C@@H](Cc1c[nH]cn1)C(=O)N[C@@H](CCCNC(=N)N)C(=O)N[C@@H](CCCCN)C(=O)N[C@@H](CCCNC(=N)N)C(=O)N[C@@H](CC(N)=O)C(=O)N[C@@H](CC(N)=O)C(=O)N[C@@H](CO)C(=O)N[C@@H](CCCNC(=N)N)C(=O)N[C@@H](CC(C)C)C(=O)NCC(=O)N[C@@H](CC(N)=O)C(=O)NCC(=O)N[C@H](C(=O)N[C@@H](CC(C)C)C(=O)N[C@@H](Cc1ccc(O)cc1)C(N)=O)C(C)C [Peptide 9, Pal-HRKRNNSRLGNGVLY-NH2] (Palmitoyl-HRKRNNSRLGNGVLY-NH2)")
1650
>>> testvalue("CCCCCCCCCCCCCCCC(=O)N[C@@H](CC(N)=O)C(=O)N[C@@H](CO)C(=O)N[C@@H](CCCNC(=N)N)C(=O)N[C@@H](CC(C)C)C(=O)NCC(=O)N[C@@H](CC(N)=O)C(=O)NCC(=O)N[C@H](C(=O)N[C@@H](CC(C)C)C(=O)N[C@@H](Cc1ccc(O)cc1)C(N)=O)C(C)C [Peptide 17, Pal-NSRLGNGVLY-NH2] (Palmitoyl-NSRLGNGVLY-NH2)")
200
